Measured absorbance, listed per entry.
# target entity: FN2
# procedure summary: ELISA
// response body must contain only the number

These solved cases illustrate the format of a correct answer.
binder: KPEP11_07 (antibody, V domains shown, Rabbit IgG; also called anti-human EphA4 rabbit monoclonal antibody KPEP11_07) VH: QEQLKESGGRLVTPGGSLTLTCTVSGIDLSSYAMSWVRQAPEKGLEWIGFINMYGTYYASWAKGRFTISRTSTTVDLKVTSLTTEDTATYFCVRGGRSPDYDIVSGDIWGPGTLVTVSS VL: YVMMTQTPSSVSEPVGGTVTIKCQASQNIYNSLAWYQQKPGQRPKLLIADASELASGVPQRFSGSGSGTQFTLTISDLECADAATYYCQSSSAGDSYVGGFGGGTEVVVKG
absorbance: 0.22
//
binder: KPEP11_20 (antibody, V domains shown, Rabbit IgG; also called anti-human EphA4 rabbit monoclonal antibody KPEP11_20) VH: QSLEESGGRLVTPGTPLTLTCTVSGFSLNNYYMNWVRQAPGKGLEWIGIIYPDIDTTDYASWVKGRFTISKTSTTVDLKITSPTTEDTATYFCARSDIDYYTTRLDLWGQGTLVTISS VL: AQVLTQTPSPVSAAVGGTVSINCQSSPSVYNNNWLSWFQQKPGQPPKLLIYGASTLASGVPSRFKGSGSGTQFTLTISDVQCDDAATYYCAGGYDSNSDTAFGGGTELEILG
absorbance: 0.238
//
binder: KPEP11_02 (antibody, V domains shown, Rabbit IgG; also called anti-human EphA4 rabbit monoclonal antibody KPEP11_02) VH: QSLEESGGRLVTPGGSLTLTCTVSGIDLSSYAMSWVRQAPEKGLEWIGFINNYGTYYASWAKGRFTISKTSTTVDLKVTSLTTEDTATYFCVRGGRSPNYDIVSGDIWGPGTLVTVSS VL: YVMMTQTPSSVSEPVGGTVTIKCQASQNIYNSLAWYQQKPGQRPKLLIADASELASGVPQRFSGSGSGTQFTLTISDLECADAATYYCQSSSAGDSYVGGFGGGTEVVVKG
absorbance: 0.227
//
binder: KPEP11_01 (antibody, V domains shown, also called anti-human EphA4 rabbit monoclonal antibody KPEP11_01) VH: QSVEESGGRLVTPGTPLTLTCTVSGFSLSSYHMSWVRQAPGKGLEWIGIIYRSGNTYSANWAKGRFTISKTSTTVDLKITSPTTEDTATYFCARESSTFYGMDLWGPGTLVTVSS VL: YVMMTQTPSSVSAAVGGTVTINCQASQSVYGNNELAWYQQKPGQRPKLLIYRASTLASGVPSRFKGSGSGTEFTLTISDLECADAATYYCLGYKSDDYTFGGGTKVEIKG
absorbance: 0.235

Please find the next binder below.
Form: binder = KPEP11_09 (antibody, V domains shown, Rabbit IgG; also called anti-human EphA4 rabbit monoclonal antibody KPEP11_09) VH: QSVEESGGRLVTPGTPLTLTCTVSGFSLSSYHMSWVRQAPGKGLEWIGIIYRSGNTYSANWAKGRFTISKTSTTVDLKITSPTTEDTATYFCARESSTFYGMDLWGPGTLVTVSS VL: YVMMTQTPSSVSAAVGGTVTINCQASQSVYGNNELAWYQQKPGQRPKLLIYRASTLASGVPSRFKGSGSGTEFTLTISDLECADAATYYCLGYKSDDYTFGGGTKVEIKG ; absorbance = 0.242
